test system: SNB-19; assay: NCI-60 SRB screen: CNS cancer SNB-19; format: cell-based, human; details: Homo sapiens; SNB-19; five concentrations, 48 h, SRB; read-out: GI50
assay-metric: GI50 (µM)
Use µM as the unit, but write only the number.

CC(=O)OCC12CCC(C(C)C(N)=O)C1C1CCC3C4(C)CCC(OC(C)=O)C(C)(C)C4CCC3(C)C1(C)CC2 (stereo not drawn) :: 11.9
C=C(C)[C@@H]1CC[C@]2(C(=O)NCCNCCNCCN)CC[C@]3(C)[C@H](CC[C@@H]4[C@@]5(C)CCC(=O)C(C)(C)[C@@H]5CC[C@]43C)[C@@H]12 :: 8.5

Now for a further molecule.
Hello, please tell me recorded GI50 for this one: C=C(C)[C@@H]1CC[C@]2(C(=O)OC)CC[C@]3(C)[C@H](CC[C@@H]4[C@@]5(C)CCC(=NOCCC(=NOCCC#N)NCCC#N)C(C)(C)[C@@H]5CC[C@]43C)[C@@H]12 12.6
